- assay-procedure: in vitro
- conditions-used: human, DNA structure AC50
Examples of compounds with documented AC50 at 72 h follow.

>>> result("CNc1c(C(N)=O)c2ccccn2c1C(=O)c1ccc(F)cc1")
"> 100 µM"

Record summary for Nc1ncc(-c2nc3ccccc3o2)c(-c2ccncc2)n1 : reported AC50 at 72 h = > 100 µM

====

- assay-procedure: Pharmacokinetics in male CD-1 mice
- Type: in vivo
- conditions-used: mouse, plasma; PO 3 mg/kg, male CD-1 mice; read-out: F (oral bioavailability)
- Protocol: Six groups of male CD-1 mice of approximately 25-35 g (about 8 weeks of age) were dosed with Comparative compound 324 and Compound A intravenously (IV) (in 10% DMSO:90% Hydroxypropyl-β-cyclodextrin (20% aq. w/v)) or orally (PO) (in 0.5% w/v methylcelluose (aq.) according to the regimen shown in Table 6. Intravenous doses was administered into a tail vein at a constant dose volume of 5 mL/kg to achieve a dose level of 3 mg/kg. […]
measurement-type: bioavailability (%)
Numeric only. Scale: %

>>> measured_number("Nc1ncc(-c2nc3ccccc3o2)c(-c2ccncc2)n1")
3

Turning to the following compound.
Record summary for CNc1c(C(N)=O)c2ccccn2c1C(=O)c1ccc(F)cc1 : reported bioavailability = 7

====

- assay-procedure: Pharmacokinetics in male CD-1 mice
- Type: in vivo
- conditions-used: mouse; PO 3 mg/kg, plasma, male CD-1 mice; predicted
measurement-type: AUC(0-inf)
Remember to quote the unit after the number.

Record summary for CNc1c(C(N)=O)c2ccccn2c1C(=O)c1ccc(F)cc1 : reported AUC(0-inf) = 34.6 ng·h/mL

====

- assayed-target: GSK3B (Homo sapiens, UniProt P49841)
- Sequence (P49841 whole entry): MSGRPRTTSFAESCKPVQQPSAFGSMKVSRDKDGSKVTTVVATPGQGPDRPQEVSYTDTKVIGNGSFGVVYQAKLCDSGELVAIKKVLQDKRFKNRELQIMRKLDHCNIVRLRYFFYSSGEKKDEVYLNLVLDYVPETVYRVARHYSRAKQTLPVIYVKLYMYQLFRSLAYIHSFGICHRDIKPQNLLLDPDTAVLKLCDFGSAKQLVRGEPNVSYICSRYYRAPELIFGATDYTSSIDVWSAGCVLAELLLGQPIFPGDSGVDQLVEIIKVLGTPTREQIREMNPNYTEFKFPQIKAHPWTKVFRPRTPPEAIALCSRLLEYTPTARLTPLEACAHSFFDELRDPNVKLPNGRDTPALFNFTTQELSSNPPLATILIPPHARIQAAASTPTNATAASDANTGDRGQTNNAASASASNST
- assay-procedure: Kinase selectivity, % remaining activity
- Format: biochemical
- conditions-used: 10 μM compound, 10 μM ATP, duplicate, read-out: % of remaining activity (relative to DMSO)
Examples of compounds with documented remaining activity at 10 µM follow.

>>> result("Nc1ncnc2c1c(COc1cccc(Cl)c1)nn2C1CCOCC1")
"114%"

Record summary for NC(=O)c1c(N)c(C(=O)c2ccc(F)cc2)n2ccccc12 : reported remaining activity at 10 µM = 70%

Record summary for CNc1c(C(N)=O)c2ccccn2c1C(=O)c1ccc(F)cc1 : reported remaining activity at 10 µM = 124%

Record summary for COc1ccc(C=C2N=C(c3cccs3)OC2=O)cc1 : reported remaining activity at 10 µM = 120%

Record summary for Nc1ncc(-c2nc3ccccc3o2)c(-c2ccncc2)n1 : reported remaining activity at 10 µM = 91.3%

Taken from patent US10815230B2.
